- Tested on: waterhemp
- runDescription: Test C pre-/postemergence herbicide test
- Assay type: in vivo, Amaranthus rudis
- assayConditions: Postemergence, 31 g ai/ha; scale 0 to 100 (0 no effect, 100 complete control)

compound	Plant response rating, Waterhemp
O=C1NCC(c2cccc(OC(F)F)c2)C1C(=O)Nc1ccccc1F (stereo not drawn) [Compound 223]	0
CN1CC(c2ccc(C(F)(F)F)cc2)C(C(=O)Nc2ccccc2F)C1=O (stereo not drawn) [Compound 304]	50
O=C1NCC(c2ccc(C(F)(F)F)cc2)C1C(=O)Nc1ccc(F)c(F)c1F (stereo not drawn) [Compound 232]	75
O=C1NCC(c2cccc(OC(F)F)c2)C1C(=O)Nc1cccc(F)c1F (stereo not drawn) [Compound 324]	0
Cc1cccc(NC(=O)C2C(=O)NCC2c2cccc(C(F)(F)F)c2)c1 (stereo not drawn) [Compound 317]	0
O=C1NCC(c2cccc(C(F)(F)F)c2)C1C(=O)Nc1ccccc1Cl (stereo not drawn) [Compound 312]	0

Sourced from patent US10294202B2
